polymerase ribozyme fitness (log ratio) values by entry
B1: TPR 5TU (parent)
chain: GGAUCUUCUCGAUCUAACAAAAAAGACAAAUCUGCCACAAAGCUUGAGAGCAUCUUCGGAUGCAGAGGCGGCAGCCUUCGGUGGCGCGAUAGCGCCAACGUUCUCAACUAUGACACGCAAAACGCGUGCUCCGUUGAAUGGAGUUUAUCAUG

- Variants of: B1
- protocolDescription: polymerase ribozyme fitness, log enrichment relative to wild type (log ratio); higher = more active; in vitro selection for triplet polymerase activity
Fewer inactive variants are shown than the library holds.
Give the value as a plain number.

These solved cases illustrate the format of a correct answer.
var="C38A C93A G143U" quantityname="polymerase ribozyme fitness (log ratio)" testresult=-4.12
var="C69A G84A" quantityname="polymerase ribozyme fitness (log ratio)" testresult=-2.31
var="A98U A138G" quantityname="polymerase ribozyme fitness (log ratio)" testresult=-3.32
var="U15G G48U C54U C123A G136U" quantityname="polymerase ribozyme fitness (log ratio)" testresult=-2.93

Now look at this entry.
Request: For the variant shown here, C38U G62U C96G , give the reported polymerase ribozyme fitness (log ratio).
Response: -1.8
